Experiment Description: TK assay, intravenous mixture dosing: serum concentrations and noncompartmental analysis (sparse data)
Experimental Setup: female, New Zealand white (INRA 1777 line), rabbit, in vivo, iv, VZ, IV mixture dosing, NCA, n=12
Reported Endpoint: Vd (L/kg)
Report as a plain number; the unit L/kg is understood.

Take a look at these entries with their results.
Brc1ccc(Oc2ccc(Br)cc2Br)c(Br)c1: 54.8
Cl[C@H]1[C@H](Cl)[C@@H](Cl)[C@H](Cl)[C@@H](Cl)[C@@H]1Cl: 27.1

The record that follows has no Vd shown yet.
Q: What measured Vd goes with `O=C(O)C(F)(F)C(F)(F)C(F)(F)C(F)(F)C(F)(F)C(F)(F)C(F)(F)F` ?
Ans: 0.332

----------
Experiment Description: TK assay, oral mixture dosing: serum concentrations and noncompartmental analysis (sparse data)
Experimental Setup: female, New Zealand white (INRA 1777 line), rabbit, in vivo, po
// MRT lookup, one value per entry
Report as a plain number; the unit days is understood.

Take a look at these entries with their results.
Brc1ccc(Oc2ccc(Br)cc2Br)c(Br)c1: 10.8
Cl[C@H]1[C@H](Cl)[C@@H](Cl)[C@H](Cl)[C@@H](Cl)[C@@H]1Cl: 15.4
ClC(Cl)=C(c1ccc(Cl)cc1)c1ccc(Cl)cc1: 12.8
O=C(O)C(F)(F)C(F)(F)C(F)(F)C(F)(F)C(F)(F)C(F)(F)C(F)(F)F: 1.08

The record that follows has no MRT shown yet.
Q: What measured MRT goes with `Clc1c(Cl)c(Cl)c(Cl)c(Cl)c1Cl` ?
Ans: 46.5

----------
Experiment Description: TK assay, intravenous mixture dosing: serum concentrations and noncompartmental analysis (sparse data)
Experimental Setup: female, New Zealand white, rabbit, in vivo, iv, Serum concentration, rabbit 12, 671.83 h
// concentration at 671.83 h lookup, one value per entry
Report as a plain number; the unit nM is understood.

Brc1ccc(Oc2ccc(Br)cc2Br)c(Br)c1: 2.8

The record that follows has no concentration at 671.83 h shown yet.
Q: What measured concentration at 671.83 h goes with `Cl[C@H]1[C@H](Cl)[C@@H](Cl)[C@H](Cl)[C@@H](Cl)[C@@H]1Cl` ?
Ans: 9.6

----------
Experiment Description: TK assay, oral mixture dosing: serum concentrations and noncompartmental analysis (sparse data)
Experimental Setup: female, New Zealand white (INRA 1777 line), rabbit, in vivo, po, Serum concentration, oral, rabbit 14, 4.17 h; MEHP after oral DEHP
Reported Endpoint: concentration at 4.17 h (µM)
Report as a plain number; the unit µM is understood.

Q: What measured concentration at 4.17 h goes with `O=C(O)C(F)(F)C(F)(F)C(F)(F)C(F)(F)C(F)(F)C(F)(F)C(F)(F)F` ?
Ans: 6.7

----------
Experiment Description: Nonlinear mixed effect (NLME) compartmental modeling of merged IV and oral serum concentrations
Experimental Setup: female, New Zealand white (INRA 1777 line), rabbit, in vivo
// k el lookup, one value per entry
Report as a plain number; the unit s⁻¹ is understood.

Take a look at these entries with their results.
Clc1c(Cl)c(Cl)c(Cl)c(Cl)c1Cl [HCB, hexachlorobenzene]: 9.74e-07
Brc1ccc(Oc2ccc(Br)cc2Br)c(Br)c1 [BDE-47, 2,2′,4,4′-tetrabromodiphenyl ether]: 1.8e-05
ClC(Cl)=C(c1ccc(Cl)cc1)c1ccc(Cl)cc1 [pp′DDE]: 1.33e-05

The record that follows has no k el shown yet.
Q: What measured k el goes with O=C(O)C(F)(F)C(F)(F)C(F)(F)C(F)(F)C(F)(F)C(F)(F)C(F)(F)F [PFOA, perfluorooctanoic acid] ?
Ans: 2.08e-05

----------
Experiment Description: TK assay, intravenous mixture dosing: serum concentrations and noncompartmental analysis (sparse data)
Experimental Setup: female, New Zealand white, rabbit, in vivo, iv, Serum concentration, rabbit 3, 4.05 h
Experimental: The experiment was carried out on thirty 10-wk old female New Zealand white rabbits (INRA 1777 line) weighing 2.37±0.14kg . […] Residual concentrations of the compounds, and their possible evolution over time, were determined by sampling six entirely untreated rabbits during the TK study on the day of drug administrations, then 14 d and 28 d later. The volume administered was adjusted to the animal’s body weight (BW) recorded the day before. […]
Reported Endpoint: concentration at 4.05 h (nM)
Report as a plain number; the unit nM is understood.

Q: What measured concentration at 4.05 h goes with `O=C(O)C(F)(F)C(F)(F)C(F)(F)C(F)(F)C(F)(F)C(F)(F)C(F)(F)F` ?
Ans: 1450

----------
Experiment Description: TK assay, intravenous mixture dosing: serum concentrations and noncompartmental analysis (sparse data)
Experimental Setup: female, New Zealand white (INRA 1777 line), rabbit, in vivo, iv, VSS, IV mixture dosing, NCA, n=12
// Vd lookup, one value per entry
Report as a plain number; the unit L/kg is understood.

Take a look at these entries with their results.
Brc1ccc(Oc2ccc(Br)cc2Br)c(Br)c1: 20.3
O=C(O)C(F)(F)C(F)(F)C(F)(F)C(F)(F)C(F)(F)C(F)(F)C(F)(F)F: 0.135

Q: What measured Vd goes with `Cl[C@H]1[C@H](Cl)[C@@H](Cl)[C@H](Cl)[C@@H](Cl)[C@@H]1Cl` ?
Ans: 30.9

----------
Experiment Description: TK assay, intravenous mixture dosing: serum concentrations and noncompartmental analysis (sparse data)
Experimental Setup: female, New Zealand white (INRA 1777 line), rabbit, in vivo, iv
Reported Endpoint: AUC(0-inf) (µM·h)
Report as a plain number; the unit µM·h is understood.

Take a look at these entries with their results.
O=C(O)C(F)(F)C(F)(F)C(F)(F)C(F)(F)C(F)(F)C(F)(F)C(F)(F)F: 27.4
Clc1c(Cl)c(Cl)c(Cl)c(Cl)c1Cl: 4.52
Cl[C@H]1[C@H](Cl)[C@@H](Cl)[C@H](Cl)[C@@H](Cl)[C@@H]1Cl: 26.7
Brc1ccc(Oc2ccc(Br)cc2Br)c(Br)c1: 42.2

The record that follows has no AUC(0-inf) shown yet.
Q: What measured AUC(0-inf) goes with `ClC(Cl)=C(c1ccc(Cl)cc1)c1ccc(Cl)cc1` ?
Ans: 19.8

----------
Experiment Description: in vivo
Experimental Setup: female, New Zealand white (INRA 1777 line), rabbit, in vivo, po
Label Not fulfilled if AUC(0-inf) falls below 200 µM·h; label Fulfilled in every other case.

Check out these entries, answers already filled in.
Clc1c(Cl)c(Cl)c(Cl)c(Cl)c1Cl: Fulfilled
ClC(Cl)=C(c1ccc(Cl)cc1)c1ccc(Cl)cc1: Not fulfilled
Cl[C@H]1[C@H](Cl)[C@@H](Cl)[C@H](Cl)[C@@H](Cl)[C@@H]1Cl: Not fulfilled
O=C(O)C(F)(F)C(F)(F)C(F)(F)C(F)(F)C(F)(F)C(F)(F)C(F)(F)F: Not fulfilled

Q: Given the entry `Brc1ccc(Oc2ccc(Br)cc2Br)c(Br)c1` , answer whether its AUC(0-inf) meets or surpasses 200 µM·h.
Ans: Not fulfilled

----------
Experiment Description: in vivo
Experimental Setup: female, New Zealand white (INRA 1777 line), rabbit, in vivo, po
Doc: threshold 1 mL/min/kg (exclusive). Items with CL/F beneath it return label 1; others return label 0.

ClC(Cl)=C(c1ccc(Cl)cc1)c1ccc(Cl)cc1: label 0
O=C(O)C(F)(F)C(F)(F)C(F)(F)C(F)(F)C(F)(F)C(F)(F)C(F)(F)F: label 1
Brc1ccc(Oc2ccc(Br)cc2Br)c(Br)c1: label 0
Clc1c(Cl)c(Cl)c(Cl)c(Cl)c1Cl: label 0

Here's the next entry for you.
Q: Hi there! Is CL/F for `Cl[C@H]1[C@H](Cl)[C@@H](Cl)[C@H](Cl)[C@@H](Cl)[C@@H]1Cl` below 1 mL/min/kg, do you know?
Ans: label 0

----------
Experiment Description: TK assay, oral mixture dosing: serum concentrations and noncompartmental analysis (sparse data)
Experimental Setup: female, New Zealand white (INRA 1777 line), rabbit, in vivo, po, Serum concentration, oral, rabbit 13, 4.30 h; MEHP after oral DEHP
Reported Endpoint: concentration at 4.3 h (µM)
Report as a plain number; the unit µM is understood.

Q: What measured concentration at 4.3 h goes with O=C(O)C(F)(F)C(F)(F)C(F)(F)C(F)(F)C(F)(F)C(F)(F)C(F)(F)F [PFOA, perfluorooctanoic acid] ?
Ans: 6.04

----------
Experiment Description: in vivo
Experimental Setup: female, New Zealand white (INRA 1777 line), rabbit, in vivo, po, Serum concentration
// concentration at 0.57 h lookup, one value per entry
Report as a plain number; the unit nM is understood.

ClC(Cl)=C(c1ccc(Cl)cc1)c1ccc(Cl)cc1 [pp′DDE]: 16

The record that follows has no concentration at 0.57 h shown yet.
Q: What measured concentration at 0.57 h goes with Clc1c(Cl)c(Cl)c(Cl)c(Cl)c1Cl [HCB, hexachlorobenzene] ?
Ans: 66
